Experiment: Canine pharmacokinetics of enteric coated formulations at 0.15 mg/kg (T1) and 0.75 mg/kg (T5)
Format: in vivo
Conditions: dog, blood, po, 0.15 mg/kg, dogs, oral enteric coated formulation, T1 0.15 mg/kg, Median
measurement-type: half-life (h)
Kindly answer with a numeric value in h, unit omitted.

Query string: // Input: CO[C@H]1C[C@@H]2CC[C@@H](C)[C@@](O)(O2)C(=O)C(=O)N2CCCC[C@H]2C(=O)O[C@H]([C@H](C)C[C@@H]2CC[C@@H](O)[C@H](OC)C2)CC(=O)[C@H](C)/C=C(\C)[C@@H](O)[C@@H](OC)C(=O)[C@H](C)C[C@H](C)/C=C/C=C/C=C/1C [rapamycin] . Output its half-life only.
Result string: 13.6

Origin of the recorded values: patent US12599590B2
